Recorded values, source paper PMC5083757.

- METHOD SUMMARY: Pharmacokinetic assessment of veliparib plasma concentrations after a single oral dose
- Type: in vivo, human
- STUDY CONDITIONS: human, plasma; 400 mg single oral dose, N = 46, mean ± SD
READOUT TYPE: Cmax (ng/mL)
I only need the number, in ng/mL, no unit after it.

[in] Value lookup for Cmax; key = C[C@]1(c2nc3c(C(N)=O)cccc3[nH]2)CCCN1 [Veliparib]
[out] 2610

====

- METHOD SUMMARY: Pharmacokinetic assessment of veliparib plasma concentrations after a single oral dose
- Format: in vivo, human
- STUDY CONDITIONS: human, plasma; 200 mg single oral dose, N = 47, mean ± SD
READOUT TYPE: AUC(0-t) (ng·h/mL)
Dear colleague, please return just the value in ng·h/mL, with no unit written.

[in] Can you share its AUC(0-t)? I mean this compound: C[C@]1(c2nc3c(C(N)=O)cccc3[nH]2)CCCN1 [Veliparib]
[out] 11100

====

- METHOD SUMMARY: Pharmacokinetic assessment of veliparib plasma concentrations after a single oral dose
- Format: in vivo, human
- STUDY CONDITIONS: human, plasma; 200 mg single oral dose, N = 47, mean ± SD
READOUT TYPE: Tmax (h)
Please state the figure in h; there is no need to write the unit.

[in] Could you share which Tmax value was measured for C[C@]1(c2nc3c(C(N)=O)cccc3[nH]2)CCCN1 ?
[out] 2.4
